Test system: NCI-H1355 (Lung Adenocarcinoma);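 note: after 72 h of two-drug dosing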
experimentSummary: Bliss excess, mean over the matrix (fraction); higher = more synergy
metricName: Bliss excess

| molecule | targetSystem | metricName | observedMeasurement |
| --- | --- | --- | --- |
| C[C@@H]1COCCN1c1cc(C2([S@](C)(=N)=O)CC2)nc(-c2ccnc3[nH]ccc23)n1 [AZD6738] + O=C(c1cc(Cc2n[nH]c(=O)c3ccccc23)ccc1F)N1CCN(C(=O)C2CC2)CC1 [Olaparib] (first compound max 10 µM, 7x7, partner max 10 µM) | NCI-H1355 (Lung Adenocarcinoma) | Bliss excess | -0.0357 |
| CCN(CCO)CCCOc1ccc2c(Nc3cc(CC(=O)Nc4cccc(F)c4)[nH]n3)ncnc2c1 [AZD2811] + C=CCn1c(=O)c2cnc(Nc3ccc(N4CCN(C)CC4)cc3)nc2n1-c1cccc(C(C)(C)O)n1 [AZD1775] (first compound max 1 µM, partner max 1 µM) | NCI-H1355 (Lung Adenocarcinoma) | Bliss excess | -0.0067 |
| NC1(C(=O)N[C@@H](CCO)c2ccc(Cl)cc2)CCN(c2ncnc3[nH]ccc23)CC1 [Capivasertib] + CCN(CCO)CCCOc1ccc2c(Nc3cc(CC(=O)Nc4cccc(F)c4)[nH]n3)ncnc2c1 [AZD2811] (first compound max 10 µM, 7x7, partner max 1 µM) | NCI-H1355 (Lung Adenocarcinoma) | Bliss excess | 0.045 |
| CCc1c2c(nc3ccc(O)cc13)-c1cc3c(c(=O)n1C2)COC(=O)[C@]3(O)CC [SN-38] + O=C(c1cc(Cc2n[nH]c(=O)c3ccccc23)ccc1F)N1CCN(C(=O)C2CC2)CC1 [Olaparib] (first compound max 0.3 µM, 7x7, partner max 10 µM) | NCI-H1355 (Lung Adenocarcinoma) | Bliss excess | 0.0271 |
| CN(CCO)CC[C@H](CSc1ccccc1)Nc1ccc(S(=O)(=O)NC(=O)c2ccc(N3CCC([C@@H](O)c4ccccc4-c4ccc(Cl)cc4)CC3)cc2)cc1S(=O)(=O)C(F)(F)F [AZD4320] + CN(C)CCCOc1ccc(-c2ccc3ncc4c(c3c2)n(C2CCOCC2)c(=O)n4C)cn1 [AZD0156] (first compound max 1 µM, 7x7, partner max 1 µM) | NCI-H1355 (Lung Adenocarcinoma) | Bliss excess | -0.0888 |
| Cc1cc2ncnn2cc1Nc1ncc2c(n1)n(C1CCOCC1)c(=O)n2C [AZD7648] + COc1cc([C@@H]2c3cc4c(cc3[C@@H](O[C@@H]3O[C@@H]5CO[C@@H](C)O[C@H]5[C@H](O)[C@H]3O)[C@H]3COC(=O)[C@H]23)OCO4)cc(OC)c1O [Etoposide] (first compound max 10 µM, 7x7, partner max 10 µM) | NCI-H1355 (Lung Adenocarcinoma) | Bliss excess | 0.0529 |
